Assay: Thermodynamic solubility in sodium phosphate buffer of pH 7.4 by UV-reverse phase HPLC analysis
Type: physicochemical

# MOLECULE, COMPARATIVE_SIGN, solubility thermodynamic / µg/mL
rows = [
    ("CCCCCCCCOc1ccc(OCC(=O)Cn2ccc3cc(C(=O)O)ccc32)cc1", "<", 3),
    ("O=C(COc1ccc(Oc2ccc(C(F)(F)F)cc2)cc1)Cn1ccc2cc(C(=O)O)ccc21", "<", 3),
    ("O=C(COc1cccc(-c2ccccc2)c1)Cn1ccc2cc(C(=O)O)ccc21", "=", 16),
    ("CCCCCCOc1ccc(OCC(=O)Cn2ccc3cc(C(=O)O)ccc32)cc1", "=", 7),
    ("CC(C)c1ccc(-c2ccc(OCC(=O)Cn3ccc4cc(C(=O)O)ccc43)cc2)cc1", "<", 3),
    ("Cc1cc(-c2ccccc2)ccc1OCC(=O)Cn1ccc2cc(C(=O)O)ccc21", "<", 3),
    ("CC(C)(c1ccccc1)c1ccc(OCC(=O)Cn2ccc3cc(C(=O)O)ccc32)cc1", "=", 25),
    ("Cc1ccc(-c2ccc(OCC(=O)Cn3ccc4cc(C(=O)O)ccc43)cc2)cc1", "<", 3),
    ("O=C(COc1ccc(Oc2ccccc2)cc1)Cn1ccc2cc(C(=O)O)ccc21", "=", 43),
    ("O=C(COc1ccc(-c2ccc(Cl)cc2)cc1)Cn1ccc2cc(C(=O)O)ccc21", "<", 3),
    ("O=C(COc1ccccc1-c1ccccc1)Cn1ccc2cc(C(=O)O)ccc21", "=", 21),
    ("COc1ccc2c(c1)c(CC(=O)O)c(C)n2C(=O)c1ccc(Cl)cc1 [INDOMETHACIN]", "=", 246),
]

* * *

Experiment: Drug level in C57Bl6 mouse bile at 100 mg/kg, po after 2 hrs by HPLC/MS analysis
Type: ADME, organism-based
Set-up: dose 100 mg/kg, route oral
Conditions: read-out: Drug uptake
PARAMETER_MEASURED: concentration at 2 h (ng/mL)

# MOLECULE, OBSERVED_RESULT
data = [
    ("CC(C)C(=O)c1cn(CC(O)COc2ccc(Oc3ccccc3)cc2)c2ccc(C(=O)O)cc12 (stereo unspecified)", 42000),
]

* * *

Species: Homo sapiens
Assay: Inhibition of human platelet cPLA2alpha assessed as inhibition of arachidonic acid production at 1 uM after 60 mins by UV-reverse phase HPLC analysis
The source made the active and inactive calls. No cut-off for these calls is given here.
PARAMETER_MEASURED: inhibition

# SMILES_INPUT, PARAMETER_MEASURED, OBSERVED_RESULT
data = [
    ("O=C(COc1ccc(-c2ccccc2)cc1Cl)Cn1ccc2cc(C(=O)O)ccc21", "inhibition", "29%"),
    ("O=C(COc1ccccc1-c1ccccc1)Cn1ccc2cc(C(=O)O)ccc21", "inhibition", "inactive"),
    ("NC(=O)c1ccc2c(ccn2CC(=O)COc2ccccc2-c2ccccc2)c1", "inhibition", "inactive"),
    ("Cc1cc(-c2ccccc2)ccc1OCC(=O)Cn1ccc2cc(C(=O)O)ccc21", "inhibition", "16%"),
    ("COc1cc(-c2ccccc2)ccc1OCC(=O)Cn1ccc2cc(C(=O)O)ccc21", "inhibition", "inactive"),
]

* * *

Experiment: Drug level in C57Bl6 mouse bile at 10 mg/kg, iv after 30 mins by HPLC/MS analysis
Type: ADME, organism-based
Parameters: dose 10 mg/kg, route intravenous
Conditions: read-out: Drug uptake

# MOLECULE, concentration at 0.5 h (µg/mL)
data = [
    ("CC(C)C(=O)c1cn(CC(O)COc2ccc(Oc3ccccc3)cc2)c2ccc(C(=O)O)cc12 (stereo unspecified)", 96),
]
